The entries below are paired with their reported ΔtR (X-PSL) (min) 80° C..
assay: RP-HPLC temperature profiling (hydrophobicity and self-association/dimerization parameter PA); assay type: physicochemical; details: polar face substitutions; retention time difference relative to native peptide V681 (PSL) at 80° C.; relative hydrophobicity
The reply should consist of the numeric value with the unit placed after it.

PKL: V681 analog with L-Lys at position 11 (polar face) (KWKSFLKTFKKAVKTVLHTALKAISS) : -1.94 min
PLL: V681 analog with L-Leu at position 11 (polar face) (KWKSFLKTFKLAVKTVLHTALKAISS) : 1.68 min
Ac-KWKSFLKTFKVAVKTVLHTALKAISS-NH2 [PVL] : 0.35 min

Here is the next item to consider.
Short answer for PAL: V681 analog with L-Ala at position 11 (polar face) (KWKSFLKTFKAAVKTVLHTALKAISS) : ΔtR (X-PSL) (min) 80° C. was 0.80 min
